system: HCC-2998 colon; assay: NCI-60 one-dose screen, 48 h; conditions: 10 µM unless noted
About 83,000 compounds went through this panel and 20% of them were active in at least one assay; those are over-represented in the sample as a whole. Active and inactive are the calls of the source. The calls were made as follows: active = growth percent below 10; inactive = the rest.
Pick one: active, inactive

A selection of reference data follows.
1. CCNCCNc1cc(-c2cccc(C(F)(F)F)c2)c(C#N)c2nc3ccccc3n12	active
2. COc1ccc(-c2cncnc2N)cc1OC	inactive
3. COc1ccccc1NC(=O)Nc1ccc(-c2nc3ccccc3o2)cc1	inactive

GET /call?item= COc1ccc(-c2nc3sccn3c2/C=C/C(=O)c2c[nH]c3ccccc23)cc1 returns the recorded outcome of this test. inactive

Subsequent entry: O=C(Nc1ccc(N2CCCCC2)c(Cl)c1)c1ccc(Br)o1 inactive

* * *

tested on: CAKI-1 renal; assay: NCI-60 one-dose screen, 48 h (100 = growth as untreated, 0 = no growth, -100 = all killed); conditions: 10 µM unless noted
About 83,000 compounds went through this panel and 20% of them were active in at least one assay; those are over-represented in the sample as a whole. Active and inactive are the calls of the source. How the source made its calls: active means growth percent below 10; inactive means the rest.
measurementType: growth

1) Cl.Fc1c[c-]c(-c2ccccn2)c(F)c1.[Pt].c1ccc(P(c2ccccc2)C([PH+](c2ccccc2)c2ccccc2)[PH+](c2ccccc2)c2ccccc2)cc1	-1.81% (active)

Look up growth: COc1cc2nc(Nc3ccc(F)cc3)nc(N)c2cc1OC 102% (inactive)

Subsequent entry: N[C@@H]1CCC[C@H]1NCCCCN1C(=O)c2cccc3cccc(c23)C1=O 81.3% (inactive)

Subsequent entry: C[C@@H]1CC[C@@H]2[C@@H]1[C@H](OC(=O)c1ccc3ccccc3c1)[C@]1(C3CCCCC3)C[C@@H](OC(=O)CO)[C@@]2(C)O1 -31% (active)

* * *

test system: PC-3 prostate; assay: NCI-60 one-dose screen, 48 h; settings: 10 µM unless noted
This is part of a sample that, as a whole, favours compounds with a hit. Of some 83,000 tested, about 20% had one in any assay. Active and inactive are the calls of the source. The calls were made as follows: active = growth percent below 10; inactive = the rest.
Pick one: active, inactive

A selection of reference data follows.
1. O=C(NCCOCCOCCOCCNC(=O)c1cc2c(o1)C(=O)c1ccccc1C2=O)NC12CC3CC(CC(C3)C1)C2	inactive
2. CC(=O)c1cc2c(o1)C(=O)c1ccccc1C2=O	active
3. Cn1nnnc1-c1ccc(N)cc1	inactive
4. COc1cc(NC(=O)c2cccc(-c3cc(=O)c4c(O)c(OC)c(OC)cc4o3)c2)cc(OC)c1OC	inactive
5. CCN(CC)S(=O)(=O)c1ccc(O)c(NC(=O)c2[nH]c(C)c(C(C)=O)c2CCc2ccc(Cl)cc2)c1	inactive

Next item in the queue.
GET /call?item= Cc1c(C(N)=O)sc2nc(C)n(/N=c3\scc(-c4ccccc4)n3Cc3ccccc3)c(=O)c12 returns the recorded outcome of this test. active

* * *

System: MALME-3M melanoma
Assay: NCI-60 one-dose screen, 48 h
Settings: 10 µM unless noted
Description: Cells are grown in 96 well plates and exposed to the test compound for 48 hours. Compounds are tested at a single concentration, which is 10^-5 M for most compounds. The reported endpoint is percent growth (GI% or GIPRCNT), where numbers from 0 - 100% represent growth inhibition, and numbers from -100% - 0 represent cell death. For example, a value of 40 represents 60% growth inhibition. A value of 0 means no net growth occurred over the course of the experiment. […]
About 83,000 compounds went through this panel and 20% of them were active in at least one assay; those are over-represented in the sample as a whole. Calls of active or inactive are those of the source. The calls were made as follows: active = growth percent below 10; inactive = the rest.
Pick one: class 1 (active), class 0 (inactive)

GET /call?item= O=C1C2=C(CCN(Cc3ccccc3)C2)N2CCN=C2N1Cc1ccc(C(F)(F)F)cc1 returns the recorded outcome of this test. class 0

Subsequent entry: CNC1(C#N)CCN(Cc2ccccc2)CC1 class 0

Subsequent entry: Cc1ccc(S(=O)(=O)Nc2sccc2-c2nc(-c3ccccc3)no2)cc1 class 0

Subsequent entry: CCn1c(Sc2nnc(NC(C)=O)s2)nc2c1c(=O)n(C)c(=O)n2C class 0

Subsequent entry: OC(c1cccc(OCc2ccccc2)c1)c1nnc(-c2ccccc2)o1 (stereo unspecified) class 0

Subsequent entry: COc1cc2c(cc1OC)-c1ccc3cc4c(cc3c1N(CCN1CCCC1)C2)OCO4 class 0
